# experimental-system: CTLA-4 (UniProt P16410 P16410:36-161)
# Sequence (P16410 36-161, one chain of several): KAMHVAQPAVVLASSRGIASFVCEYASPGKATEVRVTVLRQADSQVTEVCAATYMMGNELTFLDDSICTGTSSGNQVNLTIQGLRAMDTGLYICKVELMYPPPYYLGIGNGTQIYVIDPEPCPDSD
# test-protocol: CTLA-4 stably expressing 293 cells; no binding to non-transfected 293T by flow at 10 nM
# condition-info: tags: expressed on CTLA-4-transfected 293T / stably expressing 293 cells; label: AlexaFluor 647 (flow cytometry)
# reported pKd; entries follow
Scale explanation: pKd corresponds to minus log10 of a concentration expressed in moles per litre.

>  <binder>
CA32 (ssDNA) DNA: TCCCTACGGCGCTAACGTCCACACTCAGAAAACAGAATAGGGGGTAGCCACCGTGCTACAAC

>  <pKd>
7.21

$$$$

Switching to the query record.
Please give the documented pKd of CA82 (ssDNA) DNA: TCCCTACGGCGCTAACCGATCGAAAATGTCCAGGGAGTTGTCTGTAGCCACCGTGCTACAAC
7.44

Source listed as patent US20170211067.
